Tested on: ducksalad (Heteranthera limosa)
Assay: Test B flooded paddy test plant response
Assay type: in vivo
Conditions: Flood (flooded paddy test), 62 g ai/ha; scale 0 to 100, 0 no effect, 100 complete control
Collected Plant response rating, Ducksalad values appear next to each entry.
endpoint: Plant response rating, Ducksalad

[
  {
    "mol": "CCc1cc(-c2ccc(Cl)cc2)nn1-c1c(OC(=O)C(C)(C)C)cnn(C)c1=O",
    "test_system": "ducksalad (Heteranthera limosa)",
    "endpoint": "Plant response rating, Ducksalad",
    "value_measured": 0
  },
  {
    "mol": "COCc1cc(-c2ccc(Br)cc2)nn1-c1c(O)cnn(C)c1=O",
    "test_system": "ducksalad (Heteranthera limosa)",
    "endpoint": "Plant response rating, Ducksalad",
    "value_measured": 0
  },
  {
    "mol": "Cc1cc(-c2ccc(Br)cc2)nn1-c1c(OC(=O)OC(C)C)cnn(C)c1=O",
    "test_system": "ducksalad (Heteranthera limosa)",
    "endpoint": "Plant response rating, Ducksalad",
    "value_measured": 50
  }
]
